List of EC50 values.
Target: T1, human αvβ6 on 293F:huβ6 cells (human, UniProt P06756 31-1048; P18564 22-788)
T1 chain 1: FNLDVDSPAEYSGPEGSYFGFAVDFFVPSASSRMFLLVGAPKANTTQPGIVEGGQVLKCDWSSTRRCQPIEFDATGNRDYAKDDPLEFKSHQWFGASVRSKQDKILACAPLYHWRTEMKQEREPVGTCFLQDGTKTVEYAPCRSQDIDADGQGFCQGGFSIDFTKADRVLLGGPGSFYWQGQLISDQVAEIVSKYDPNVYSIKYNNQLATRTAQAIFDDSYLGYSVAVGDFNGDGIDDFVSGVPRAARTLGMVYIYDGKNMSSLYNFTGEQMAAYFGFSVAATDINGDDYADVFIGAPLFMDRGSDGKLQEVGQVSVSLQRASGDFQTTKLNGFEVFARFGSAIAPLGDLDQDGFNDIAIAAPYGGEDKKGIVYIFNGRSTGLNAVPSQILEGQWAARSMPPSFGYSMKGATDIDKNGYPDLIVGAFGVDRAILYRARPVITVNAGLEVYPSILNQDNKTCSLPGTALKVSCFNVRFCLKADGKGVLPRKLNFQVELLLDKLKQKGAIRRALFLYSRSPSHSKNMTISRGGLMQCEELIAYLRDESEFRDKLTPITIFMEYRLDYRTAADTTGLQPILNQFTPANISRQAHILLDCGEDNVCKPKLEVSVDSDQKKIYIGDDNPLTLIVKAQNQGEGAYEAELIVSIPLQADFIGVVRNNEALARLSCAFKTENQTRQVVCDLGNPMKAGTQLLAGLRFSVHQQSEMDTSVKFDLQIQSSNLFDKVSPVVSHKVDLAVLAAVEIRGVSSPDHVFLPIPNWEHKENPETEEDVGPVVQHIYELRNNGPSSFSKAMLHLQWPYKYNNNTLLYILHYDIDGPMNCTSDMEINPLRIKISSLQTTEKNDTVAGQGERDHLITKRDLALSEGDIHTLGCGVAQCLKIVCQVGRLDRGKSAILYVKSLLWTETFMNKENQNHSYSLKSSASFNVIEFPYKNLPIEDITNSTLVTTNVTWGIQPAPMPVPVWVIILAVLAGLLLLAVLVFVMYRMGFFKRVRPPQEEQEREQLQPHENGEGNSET
T1 chain 2: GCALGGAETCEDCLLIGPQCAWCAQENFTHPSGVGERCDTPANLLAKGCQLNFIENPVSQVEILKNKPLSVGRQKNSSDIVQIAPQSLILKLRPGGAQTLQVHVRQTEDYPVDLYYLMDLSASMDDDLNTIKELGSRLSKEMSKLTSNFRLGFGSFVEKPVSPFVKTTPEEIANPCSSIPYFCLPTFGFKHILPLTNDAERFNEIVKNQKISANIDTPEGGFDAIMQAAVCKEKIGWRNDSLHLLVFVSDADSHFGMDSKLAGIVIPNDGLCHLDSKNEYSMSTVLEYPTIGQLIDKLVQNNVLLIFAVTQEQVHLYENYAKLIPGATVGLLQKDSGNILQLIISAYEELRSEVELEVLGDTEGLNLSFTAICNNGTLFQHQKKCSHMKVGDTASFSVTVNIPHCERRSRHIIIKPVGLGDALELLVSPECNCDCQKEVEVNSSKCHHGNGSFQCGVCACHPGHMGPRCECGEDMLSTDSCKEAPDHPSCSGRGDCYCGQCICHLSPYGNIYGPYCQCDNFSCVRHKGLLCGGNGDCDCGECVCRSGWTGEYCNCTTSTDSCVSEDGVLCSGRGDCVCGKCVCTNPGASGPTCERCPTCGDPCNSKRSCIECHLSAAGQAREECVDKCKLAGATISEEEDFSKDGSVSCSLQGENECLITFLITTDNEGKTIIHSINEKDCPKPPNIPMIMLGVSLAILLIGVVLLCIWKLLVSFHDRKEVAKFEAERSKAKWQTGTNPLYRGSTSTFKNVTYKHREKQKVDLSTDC
Assay: competition binding on 293F cells; 2nM m2A2-AF647 competitor

BINDER	EC50 (nM)
h2A2 HCLA (antibody, V domains shown) VH: QFQLVQSGAEVKKPGASVKVSCKASGYSFTDYNVNWVRQAPGQGLEWIGVINPKYGTTRYNQKFKGRATLTVDKSTSTAYMELSSLRSEDTAVYYCTRGLNAWDYWGQGTLVTVSS VL: DIQMTQSPSSLSASVGDRVTITCGASENIYGALNWYQQKPGKAPKLLIYGATNLADGVPSRFSGSGSGTDFTFTISSLQPEDIATYYCQNVLTTPYTFGQGTKLEIKR	74
h2A2 HBLA (antibody, V domains shown) VH: QFQLVQSGAEVKKPGASVKVSCKASGYSFTDYNVNWVRQAPGQGLEWMGVINPKYGTTRYNQKFKGRVTMTRDTPTSTVYMELSSLRSEDTAVYYCTRGLNAWDYWGQGTLVTVSS VL: DIQMTQSPSSLSASVGDRVTITCGASENIYGALNWYQQKPGKAPKLLIYGATNLADGVPSRFSGSGSGTDFTFTISSLQPEDIATYYCQNVLTTPYTFGQGTKLEIKR	85
h2A2 HCLB (antibody, V domains shown) VH: QFQLVQSGAEVKKPGASVKVSCKASGYSFTDYNVNWVRQAPGQGLEWIGVINPKYGTTRYNQKFKGRATLTVDKSTSTAYMELSSLRSEDTAVYYCTRGLNAWDYWGQGTLVTVSS VL: DIQMTQSPSSLSASVGDRVTITCGASENIYGALNWYQQKPGKAPKLLIYGATNLADGVPSRFSGSGSGRDYTFTISSLQPEDIATYYCQNVLTTPYTFGQGTKLEIKR	3
h2A2 HALB (antibody, V domains shown) VH: QFQLVQSGAEVKKPGASVKVSCKASGYSFTDYNVNWVRQAPGQGLEWMGVINPKYGTTRYNQKFKGRVTMTRDTSTSTVYMELSSLRSEDTAVYYCTRGLNAWDYWGQGTLVTVSS VL: DIQMTQSPSSLSASVGDRVTITCGASENIYGALNWYQQKPGKAPKLLIYGATNLADGVPSRFSGSGSGRDYTFTISSLQPEDIATYYCQNVLTTPYTFGQGTKLEIKR	5
h2A2 HDLA (antibody, V domains shown) VH: QFQLVQSGAEVKKPGASVKVSCKASGYSFTDYNVNWVRQAPGQGLEWIGVINPKYGTTRYNQKFKGRATLTVDKPTSTAYMELSSLRSEDTAVYYCTRGLNAWDYWGQGTLVTVSS VL: DIQMTQSPSSLSASVGDRVTITCGASENIYGALNWYQQKPGKAPKLLIYGATNLADGVPSRFSGSGSGTDFTFTISSLQPEDIATYYCQNVLTTPYTFGQGTKLEIKR	147
